assay_target: hASIC1a (Homo sapiens)
protocol_description: cell-based
Set-up: host or cells: CHO (tetracycline-inducible)
condition: pH 6.5 agonist, QPatch 48 single hole
Listing: Hill slope of selected molecules
Answer with a bare number; do not write a unit.

Form field Hill slope for item CC12CC3CC(C)(C1)CC(N)(C3)C2 [Memantine] on hASIC1a (Homo sapiens): 1.1

Form field Hill slope for item CC(C)C1c2cc(C3CC3c3ccc4cc(C(=N)N)ccc4c3)ccc2CCN1C (centres unmarked) on hASIC1a (Homo sapiens): 0.9

Form field Hill slope for item `NC12CC3CC(CC(C3)C1)C2` on hASIC1a (Homo sapiens): 0.9

Form field Hill slope for item N=C(N)NC(=O)c1nc(Cl)c(N)nc1N [Amiloride] on hASIC1a (Homo sapiens): 0.9

Form field Hill slope for item `NC(=NCc1ccccc1)NC(=O)c1nc(Cl)c(N)nc1N` on hASIC1a (Homo sapiens): 1.1

* * *

assay_target: hASIC1a (Homo sapiens)
protocol_description: cell-based
Design: host or cells: CHO (tetracycline-inducible)
condition: pH 6.5 agonist, 2 min pre-incubation, QPatch 48 single hole; read-out: IC50 potency
Listing: IC50 of selected compounds
Numeric only. Scale: µM

CC12CC3CC(C)(C1)CC(N)(C3)C2 [Memantine] ... 315
NC(=NCc1ccccc1)NC(=O)c1nc(Cl)c(N)nc1N ... 4.66

Kindly note the recorded IC50 for `NC12CC3CC(CC(C3)C1)C2` , which is 510

Kindly note the recorded IC50 for CC(C)C1c2cc(C3CC3c3ccc4cc(C(=N)N)ccc4c3)ccc2CCN1C (stereo not shown) , which is 0.66

* * *

assay_target: hASIC1a (Homo sapiens, UniProt P78348)
Sequence (P78348 whole entry): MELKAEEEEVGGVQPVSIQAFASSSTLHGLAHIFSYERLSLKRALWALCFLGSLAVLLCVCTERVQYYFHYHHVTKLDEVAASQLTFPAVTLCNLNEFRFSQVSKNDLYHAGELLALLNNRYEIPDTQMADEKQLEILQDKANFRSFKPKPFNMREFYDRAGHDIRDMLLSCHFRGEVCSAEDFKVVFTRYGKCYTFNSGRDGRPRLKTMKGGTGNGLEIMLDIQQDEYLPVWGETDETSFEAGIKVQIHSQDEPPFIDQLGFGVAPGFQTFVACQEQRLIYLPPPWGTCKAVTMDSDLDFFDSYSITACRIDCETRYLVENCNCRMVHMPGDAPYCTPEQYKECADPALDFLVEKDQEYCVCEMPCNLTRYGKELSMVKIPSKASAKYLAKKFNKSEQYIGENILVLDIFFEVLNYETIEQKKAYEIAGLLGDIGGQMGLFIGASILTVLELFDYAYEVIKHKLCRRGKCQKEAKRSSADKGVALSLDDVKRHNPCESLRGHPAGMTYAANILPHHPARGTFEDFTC
protocol_description: SyncroPatch 384i APC, CHO hASIC1a, puff / stacked puff application
Type: cell-based
Parameters: host or cells: CHO (tetracycline-inducible)
condition: 1X single hole chip, Stacked Puff, pH 6.5
property_label: pIC50
Scale for pIC50: -log10 of concentration given in mol/L; no unit attached.

Kindly note the recorded pIC50 for `NC(=NCc1ccccc1)NC(=O)c1nc(Cl)c(N)nc1N` , which is 5.61

* * *

assay_target: hASIC1a (Homo sapiens, UniProt P78348)
protocol_description: Patchliner APC, CHO ASIC1a currents, stacked tip application, voltage clamp
Type: cell-based
Parameters: host or cells: CHO
condition: cumulative application, pH 6.5, stacked tip, single hole
Procedure: CHO cells were cultured according to vendor instructions (B-SYS GmbH) and harvested using optimized protocols before transfer of the cell suspension to the automated cell hotel on the Patchliner where cells are stored at RT (∼20°C) in a small Teflon vessel and repetitively aspirated every 30 s using a 1 ml plastic pipette tip to prevent aggregation. The cell hotel parameters can be adjusted (interval, speed and volume of aspiration) depending on the cell type to maintain viability for 2–3 h. […]
property_label: IC50
Don't forget the unit after the number, please.

Kindly note the recorded IC50 for `NC(=NCc1ccccc1)NC(=O)c1nc(Cl)c(N)nc1N` , which is 3.65 µM

* * *

assay_target: hASIC1a (Homo sapiens, UniProt P78348)
protocol_description: SyncroPatch 384i APC, CHO hASIC1a, puff / stacked puff application
Assay type: cell-based
Parameters: host or cells: CHO (tetracycline-inducible)
condition: 1X single hole chip, Puff, pH 6.5
property_label: pIC50
Scale for pIC50: -log10 of concentration given in mol/L; no unit attached.

Kindly note the recorded pIC50 for `NC(=NCc1ccccc1)NC(=O)c1nc(Cl)c(N)nc1N` , which is 5.86
